test system: DNA-PK (Homo sapiens (Human))
test details: DNA-PK/Biochemical Assay (FlashPlate kinase assay)
test context: 5 μM ATP, 90 min, room temperature
pIC50: −log10 of the molar value.
Examples of compounds with documented pIC50 follow.

Below: 3 compounds and their reported pIC50.
INSERT INTO measurements (compound_smiles, endpoint_name, value) VALUES
  ('CCN1CCN(c2ccc(-c3nn(C)c4cnc5cc(OC)c(OC)cc5c34)cc2)CC1', 'pIC50', '6.30 to 7.00'),
  ('COc1cc2ncc3c(c(-c4ccc(C#N)cc4F)nn3C)c2cc1O', 'pIC50', '> 7.00'),
  ('COc1cc2ncc3c(c(-c4ccc(C#N)cc4)nn3C3CC3)c2cc1OC', 'pIC50', '6.30 to 7.00');

Value (pIC50, DNA-PK (Homo sapiens (Human))) for record `COc1cc2ncc3c(c(-c4ccc(C#N)cc4)nn3CC(=O)O)c2cc1OC` = 6.30 to 7.00

The compound `COc1cc2ncc3c(c(-c4ccc(C#N)cc4)nn3C)c2cc1OCc1cscn1` , when measured on DNA-PK (Homo sapiens (Human)), yielded pIC50 of > 7.00

Assay DNA-PK (Homo sapiens (Human)), sample `COc1cc2ncc3c(c(-c4ccc(C#N)cc4)nn3CC(C)C)c2cc1OC` , pIC50 read: < 6.30
